Molecular target: MTHFD2 recombinant human enzyme (Homo sapiens)
Sequence (P13995 36-350): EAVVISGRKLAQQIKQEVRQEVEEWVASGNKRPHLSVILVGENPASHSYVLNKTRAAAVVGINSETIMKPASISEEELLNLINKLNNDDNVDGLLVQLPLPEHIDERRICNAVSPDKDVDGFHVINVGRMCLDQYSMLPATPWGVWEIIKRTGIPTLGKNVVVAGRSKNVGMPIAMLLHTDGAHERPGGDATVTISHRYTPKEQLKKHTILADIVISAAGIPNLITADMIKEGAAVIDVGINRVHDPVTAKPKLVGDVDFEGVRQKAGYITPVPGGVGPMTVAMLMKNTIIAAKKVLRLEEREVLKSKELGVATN
Experiment: MTHFD2 inhibition assay (NAD(P)H-Glo luminescence)
Details: selectivity of MTHFD2 inhibition over MTHFD1, band
property measured: MTHFD1/MTHFD2 IC50 ratio

{"columns": ["compound", "result"],
 "data": [
  ["COC[C@H]1CN(c2cc(Cl)c3c4c(c(=O)oc3c2C)CN(C(=O)c2cc(N(C)C)c(C(=O)NS(=O)(=O)N3C[C@H]5C[C@@H]3CO5)cc2F)CC4)CCN1C", "J (>30)"],
  ["CCOc1cc(C(=O)N2CCc3c(c(=O)oc4c(C)c(N5CCN(C)[C@@H](COC)C5)cc(C)c34)C2)c(F)cc1C(=O)NS(=O)(=O)N1C2CCC1COC2", "H (>9.0 to 30)"],
  ["CCOc1cc(C(=O)N2CCc3c(c(=O)oc4c(C)c(N5CCN(C)[C@@H](COC)C5)cc(C)c34)C2)c(F)cc1C(=O)NS(=O)(=O)N1CC2CC2C1 (some centres unmarked)", "G (^ 3 to 9.0)"],
  ["COC[C@H]1CN(c2cc(C)c3c4c(c(=O)oc3c2C)CN(C(=O)c2cc(N(C)C)c(C(=O)NS(=O)(=O)N3CCC[C@@H]3COC)cc2F)CC4)CCN1C", "J (>30)"],
  ["COC[C@H]1CN(c2cc(Cl)c3c4c(c(=O)oc3c2C)CN(C(=O)c2cc(N(C)C)c(C(=O)NS(=O)(=O)N3CC[C@H](OC)C3)cc2F)CC4)CCN1C", "H (>9.0 to 30)"],
  ["CCOc1cc(C(=O)N2CCc3c(c(=O)oc4c(C)c(N5CCN(C)[C@@H](COC)C5)cc(C)c34)C2)c(F)cc1C(=O)NS(=O)(=O)N1CCC(C)(C)C1", "G (^ 3 to 9.0)"],
  ["COC[C@H]1CN(c2cc(Cl)c3c4c(c(=O)oc3c2C)CN(C(=O)c2ccc(C(=O)NS(=O)(=O)N3CCC[C@H]3COC)c(OC)c2)CC4)CCN1C", "H (>9.0 to 30)"],
  ["COC[C@H]1CN(c2cc(C)c3c4c(c(=O)oc3c2C)CN(C(=O)c2ccc(C(=O)NS(=O)(=O)N(C)C)c(N3CCCC3)c2F)CC4)CCN1C", "G (^ 3 to 9.0)"],
  ["COC[C@H]1CN(c2cc(Cl)c3c4c(c(=O)oc3c2C)CN(C(=O)c2cc(N(C)C)c(C(=O)NS(=O)(=O)N3CCCCC35COC5)cc2F)CC4)CCN1C", "H (>9.0 to 30)"],
  ["CCOc1c(C(=O)NS(=O)(=O)N2CC3CCC(C3)C2)ccc(C(=O)N2CCc3c(c(=O)oc4c(C)c(N5CCN(C)[C@@H](COC)C5)cc(C)c34)C2)c1F", "G (^ 3 to 9.0)"],
  ["CCOc1c(C(=O)NS(=O)(=O)N2CCCC2)ccc(C(=O)N2CCc3c(c(=O)oc4c(C)c(N5CCN(C)[C@@H](COC)C5)cc(Cl)c34)C2)c1F", "H (>9.0 to 30)"]
]}
